The values you see were collected from ChEMBL document CHEMBL1139001.

# Tested on: Trypanosoma brucei rhodesiense
# protocol details: Antitrypanosomal activity against Trypanosoma brucei rhodesiense STIB900
# Assay type: functional, organism-based
Each entry below lists one item and its recorded pIC50 value.
// scale note: pIC50 = -log10(conc_M); give the bare number

// solved cases for pIC50 follow
molecule: CSCCC(C(=O)O)N1CSC(=S)N(CCCCCCN2CN(C(CCSC)C(=O)O)CSC2=S)C1 (centres undefined)
value measured: 5.64
--
molecule: O=C(O)CCCCN1CSC(=S)N(CCCCCCN2CN(CCCCC(=O)O)CSC2=S)C1
value measured: 6.44
--
molecule: CC(C)(CN1CN(CC(=O)O)CSC1=S)CN1CN(CC(=O)O)CSC1=S
value measured: 5.54

Okay, next one:
// fetch pIC50 given entry NC(=O)CC(C(=O)O)N1CSC(=S)N(CCCCCCN2CN(C(CC(N)=O)C(=O)O)CSC2=S)C1 (centres undefined)
5.27

###

# Tested on: Trypanosoma brucei rhodesiense
# protocol details: Antitrypanosomal activity against Trypanosoma brucei rhodesiense STIB900
# Assay type: functional, organism-based
recorded endpoint: pIC50
// scale note: pIC50 = -log10(conc_M); give the bare number

compound: O=C(O)CCN1CSC(=S)N(CCCCCCN2CN(CCC(=O)O)CSC2=S)C1
pIC50: 6.25
//
compound: O=C(O)CC(C(=O)O)N1CSC(=S)N(CCCCCCN2CN(C(CC(=O)O)C(=O)O)CSC2=S)C1 (centres undefined)
pIC50: 5.44
//
compound: CC(C)(CN1CN(CCCCC(=O)O)CSC1=S)CN1CN(CCCCC(=O)O)CSC1=S
pIC50: 5.61
//
compound: O=C(O)C(Cc1ccccc1)N1CSC(=S)N(CCCCCCN2CN(C(Cc3ccccc3)C(=O)O)CSC2=S)C1 (centres undefined)
pIC50: 6.14

// fetch pIC50 given entry N=C(N)c1ccc(OCCCCCOc2ccc(C(=N)N)cc2)cc1
7.96

###

# protocol details: Therapeutic index (cytotoxicity/antitrypanosomal activity)
# Type: cell-based
# condition set: human, KB cells; read-out: Ratio IC50
recorded endpoint: selectivity ratio
Simply state the number, no unit and no words.

molecule: O=C(O)CN1CSC(=S)N(CCCCCCN2CN(CC(=O)O)CSC2=S)C1
recorded endpoint: selectivity ratio
value measured: 11.4
--
molecule: NC(=O)CCC(C(=O)O)N1CSC(=S)N(CCCCCCN2CN(C(CCC(N)=O)C(=O)O)CSC2=S)C1 (stereo not given)
recorded endpoint: selectivity ratio
value measured: 5.8

// fetch selectivity ratio given entry O=C(O)C(Cc1ccccc1)N1CSC(=S)N(CCCCCCN2CN(C(Cc3ccccc3)C(=O)O)CSC2=S)C1 (stereo not given)
7.9

// fetch selectivity ratio given entry O=C(O)CCN1CSC(=S)N(CCCCCCN2CN(CCC(=O)O)CSC2=S)C1
21.8

###

Each entry below lists one item and its recorded pIC50 value.
# System: Trypanosoma brucei rhodesiense
# protocol details: Antitrypanosomal activity against Trypanosoma brucei rhodesiense STIB900
# Type: functional, organism-based
// scale note: pIC50 = -log10(conc_M); give the bare number

// solved cases for pIC50 follow
compound: NC(=O)CCC(C(=O)O)N1CSC(=S)N(CCCCCCN2CN(C(CCC(N)=O)C(=O)O)CSC2=S)C1 (centres undefined)
pIC50: 5.03

compound: O=C(O)CCCN1CSC(=S)N(CCCCCCN2CN(CCCC(=O)O)CSC2=S)C1
pIC50: 5.37

Please report the measured pIC50 for CC(C)(CN1CN(C(Cc2ccccc2)C(=O)O)CSC1=S)CN1CN(C(Cc2ccccc2)C(=O)O)CSC1=S (centres undefined) tested on Trypanosoma brucei rhodesiense.
5.98

Please report the measured pIC50 for O=C(O)CN1CSC(=S)N(CCCCCCN2CN(CC(=O)O)CSC2=S)C1 tested on Trypanosoma brucei rhodesiense.
6.14

###

# protocol details: Therapeutic index (cytotoxicity/antitrypanosomal activity)
# Assay type: cell-based
# condition set: human, KB cells; read-out: Ratio IC50
One threshold, 2, splits the recorded selectivity ratio values: lower ones are True, equal or higher ones are False.

compound: CSCCC(C(=O)O)N1CSC(=S)N(CCCCCCN2CN(C(CCSC)C(=O)O)CSC2=S)C1 (stereo unspecified)
qualitative label: False

Does CC(C)(CN1CN(CCCCC(=O)O)CSC1=S)CN1CN(CCCCC(=O)O)CSC1=S have selectivity ratio strictly under 2?
False

Does CC(C)(CN1CN(CC(=O)O)CSC1=S)CN1CN(CC(=O)O)CSC1=S have selectivity ratio strictly under 2?
True

Does CC(C)(CN1CN(C(Cc2ccccc2)C(=O)O)CSC1=S)CN1CN(C(Cc2ccccc2)C(=O)O)CSC1=S (stereo unspecified) have selectivity ratio strictly under 2?
False

Does NC(=O)CC(C(=O)O)N1CSC(=S)N(CCCCCCN2CN(C(CC(N)=O)C(=O)O)CSC2=S)C1 (stereo unspecified) have selectivity ratio strictly under 2?
False

Does O=C(O)CCCCN1CSC(=S)N(CCCCCCN2CN(CCCCC(=O)O)CSC2=S)C1 have selectivity ratio strictly under 2?
False
